Recorded GI50 for the following compounds
- Tested on: SF-539
- PROTOCOL_DESCRIPTION: NCI tumour cell line growth inhibition, 48 h
Activity calls are given as the source filed them. Cut-off read from the data, not from the text of the source: active = GI50 up to about 1.1 µM and inactive = higher.

Some compounds with recorded GI50:
COMPOUND	GI50
Clc1ccc(-c2nnc(-c3c(Cl)c(Cl)c(Cl)c(Cl)c3-c3nc4ccccc4[nH]3)o2)cc1	> 100 µM (inactive)
CCCC(=O)N(C)/N=N/c1ccc(C(=O)OCC)cc1	> 100 µM (inactive)
Cc1ccc(NC(=O)/C(Cc2cc(=O)oc3cc(O)ccc23)=N\NC(C)(C)C)cc1C	> 100 µM (inactive)

QUERY: Bench note: what GI50 did "CCOC(=O)/C(=C/c1ccc(Cl)cc1)N(CC)CC" show?
RESULT: > 100 µM (inactive)

QUERY: Which GI50 is reported for this compound? "COc1cc(C(=O)NC(CCN)(c2ccccc2)c2ccccc2)cc(OC)c1OC"
RESULT: > 65.2 µM (inactive)

====

- Tested on: SK-MEL-28
- PROTOCOL_DESCRIPTION: NCI tumour cell line growth inhibition, 48 h
Active and inactive are the calls of the source. Rule as the data show it: active = GI50 up to about 1.1 µM and inactive = higher.
READOUT_NAME: GI50

Here are 4 compounds together with their reported answers.
COMPOUND	SYSTEM_NAME	READOUT_NAME	MEASURED
CCOC(=O)CC[C@H](NC(=O)c1nc[nH]c1[N+](=O)[O-])C(=O)OCC	SK-MEL-28	GI50	> 100 µM (inactive)
O=C1CC(c2cccc([N+](=O)[O-])c2)C2(C(=O)NC(=O)NC2=O)C(c2cccc([N+](=O)[O-])c2)C1 (stereo not given)	SK-MEL-28	GI50	> 100 µM (inactive)
O=C(NC1C2CC3CC(C2)CC1C3)/C(Cl)=C1/Sc2ccccc2NC1=O (stereo not given)	SK-MEL-28	GI50	> 100 µM (inactive)
c1cc(-c2cn[nH]c2)cc(-c2cn[nH]c2)c1	SK-MEL-28	GI50	35.9 µM (inactive)

QUERY: Look up GI50 for this compound: "CCOC(=O)c1cc2c3c(c(C(C)=O)c(OC)c2[nH]1)N(C(=O)CC)CC3"
RESULT: 15.3 µM (inactive)

====

- Test system: DMS-273
- PROTOCOL_DESCRIPTION: NCI tumour cell line growth inhibition, 48 h
Active and inactive are the calls of the source. No stated cut-off is given here; in the data, active = GI50 up to about 1.1 µM and inactive = higher.
Returns: one label drawn from yes (active), no (inactive)

Here's what some known entries look like.
COMPOUND	CLASS_ASSIGNMENT
CCOc1ccc2c(c1)[n+]([O-])c(-c1ccc(Cl)cc1)c(N)[n+]2[O-]	no
NC1=NN(c2ccccc2)C(=O)C1/C(=N\NC(=O)c1cc2ccccc2cc1O)C(=O)Nc1ccc(Cl)cc1 (configuration not stated)	no
CC1(C)OC(=O)C(=C2CCC(C(=O)Nc3cccc(C(F)(F)F)c3)N2)C(=O)O1 (configuration not stated)	no
c1cc(-c2cn[nH]c2)cc(-c2cn[nH]c2)c1	no
O=C(O)CSc1nnc(-c2ccc(O)cc2)[nH]1	no
COc1ccc(/C=C\c2cc(OC)c(OC)c(OC)c2)cc1	yes
CC(=O)OC(/C=C1/C=CC(=O)O1)COC(=O)c1ccccc1 (configuration not stated)	no
N#CCCN(CCC#N)c1ccc(/C=N\c2ccc(F)cc2)cc1	no
CC1=C(c2nc3ccccc3s2)C(=O)OC1(C)C	no
O=C(CC1=Nc2nnc(-c3nnc4n3C(=O)C(CC(=O)c3cccnc3)=N4)n2C1=O)c1cccnc1	no

QUERY: Given "COc1ccc(/C=N/N=C(\N)NO)cc1F" , state the outcome it received in this test.
RESULT: no

QUERY: Please indicate how the test categorized COc1cc([C@@H]2c3cc4c(cc3[C@@H](NC(=O)c3ccc([N+](=O)[O-])cc3)C3COC(=O)[C@@H]32)OCO4)cc(OC)c1O (some centres not stated) .
RESULT: yes

QUERY: # outcome recorded in this test, key = "CCCCc1c2c([n+]([O-])c3c1CCCC3)CCCC2"
RESULT: no

QUERY: Per the assay record, what outcome was assigned to "C[C@@]12CCC(=O)c3coc(c31)C(=O)c1cc3c(cc12)C(=O)C=CC3=O" ?
RESULT: no

QUERY: So what was the verdict on "c1ccc2c3c([nH]c2c1)C1(CCCCC1)c1c([nH]c2ccccc12)C31CCCCC1" in this test?
RESULT: no

QUERY: Could you kindly confirm the outcome this assay logged for "COc1ccc(OC(=O)N2C/C(=C\c3ccccc3)C(=O)/C(=C/c3ccccc3)C2)cc1" ?
RESULT: no

QUERY: Entry CCCCCCCCCC(=O)OCC1OC(n2cc(F)c(=O)[nH]c2=O)C(NC(=O)OCc2ccccc2)C(OC(=O)CCCCCCCCC)C1O (configuration not stated) : call = ?
RESULT: no
